- PROTOCOL DETAILS: Ascorbate oxidation assay (redox activity of iron complexes);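 on Change of absorbance, odečet 0 (time 0 subtracted), čas 10, průměr: IBE 3 means excess free chelator over 10 µM FeCl3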
- Format: biochemical
- STATED CONDITIONS: sheet IBE 3; time 10 minus time 0; mean (průměr)
Measured Change of absorbance, odečet 0 (time 0 subtracted), čas 10, průměr accompanies every entry in the list below.
PARAMETER MEASURED: Change of absorbance, odečet 0 (time 0 subtracted), čas 10, průměr

molecule="CC(=O)N(O)CCCCCNC(=O)CCC(=O)N(O)CCCCCNC(=O)CCC(=O)N(O)CCCCCN [DFO, deferoxamine, reference compound]" experimental_result=-0.00229
molecule=CCNC(=S)NN=C(c1ccccc1)c1ccccn1 experimental_result=-0.09469
molecule="O=C(O)CN(CCN(CC(=O)O)CC(=O)O)CC(=O)O [EDTA, reference compound]" experimental_result=-0.1585
molecule="CCNC(=O)NN=C(c1ccccc1)c1ccccn1 [Z-Bp4eS, 2-benzoylpyridine 4-ethylsemicarbazone]" experimental_result=-0.03903
molecule=CCN=CNN=C(c1ccccc1)c1ccccn1 experimental_result=-0.03537
molecule="CCNC(=O)NN=C(c1ccccc1)c1ccccn1 [E-Bp4eS, 2-benzoylpyridine 4-ethylsemicarbazone]" experimental_result=-0.04086

---

Measured Therapeutic index, IC50 non-cancerous cells / IC50 neoplastic cells accompanies every entry in the list below.
- System: MCF-7 human breast adenocarcinoma cells
- PROTOCOL DETAILS: MTT cytotoxicity assay, MCF-7 cells
- Assay type: cell-based
- STATED CONDITIONS: H9c2/MCF-7
PARAMETER MEASURED: Therapeutic index, IC50 non-cancerous cells / IC50 neoplastic cells

molecule=CCNC(=S)NN=C(c1ccccc1)c1ccccn1 experimental_result=34.9
molecule="CCNC(=O)NN=C(c1ccccc1)c1ccccn1 [E-Bp4eS, 2-benzoylpyridine 4-ethylsemicarbazone]" experimental_result=4.2
molecule="CCNC(=O)NN=C(c1ccccc1)c1ccccn1 [Z-Bp4eS, 2-benzoylpyridine 4-ethylsemicarbazone]" experimental_result=1.7
molecule=CCN=CNN=C(c1ccccc1)c1ccccn1 experimental_result=7.0

---

- Tested on: HCT116 human colorectal carcinoma cells
- PROTOCOL DETAILS: MTT cytotoxicity assay, HCT116 cells
- Assay type: cell-based
- STATED CONDITIONS: Homo sapiens, HCT-116, HCT116; 2 000 b/j; MTT; single experiment (date)
pIC50: −log10 of the molar value.
PARAMETER MEASURED: pIC50

molecule="CCNC(=S)NN=C(c1ccccc1)c1ccccn1 [Bp4eT]" experimental_result=8.10

---

- PROTOCOL DETAILS: Ascorbate oxidation assay (redox activity of iron complexes)
- Format: biochemical
- STATED CONDITIONS: sheet IBE 1; time 10; mean
PARAMETER MEASURED: odečet 0 (reading minus time 0 reading) at čas 10, průměr (mean)

molecule="CCNC(=O)NN=C(c1ccccc1)c1ccccn1 [Z-Bp4eS, 2-benzoylpyridine 4-ethylsemicarbazone]" experimental_result=-0.03354
molecule="O=C(O)CN(CCN(CC(=O)O)CC(=O)O)CC(=O)O [EDTA, reference compound]" experimental_result=-0.1456
molecule="CCNC(=O)NN=C(c1ccccc1)c1ccccn1 [E-Bp4eS, 2-benzoylpyridine 4-ethylsemicarbazone]" experimental_result=-0.03765
molecule="CCNC(=S)NN=C(c1ccccc1)c1ccccn1 [Bp4eT]" experimental_result=-0.1075
molecule="CCN=CNN=C(c1ccccc1)c1ccccn1 [Bp4eA]" experimental_result=-0.03248
molecule="CC(=O)N(O)CCCCCNC(=O)CCC(=O)N(O)CCCCCNC(=O)CCC(=O)N(O)CCCCCN [DFO, deferoxamine, reference compound]" experimental_result=-0.01

---

- PROTOCOL DETAILS: MTT cytotoxicity assay, 3T3 cells
- Type: cell-based, mouse
- STATED CONDITIONS: mouse, 3T3 mouse embryo fibroblasts, 3T3; 10 000 b/j; koncentrace 300 nM; individual experiments; read-out: MTT viability (0 = 100)
PARAMETER MEASURED: viability at 72 h, 300 nM

sample_smiles=CCNC(=S)NN=C(c1ccccc1)c1ccccn1 parameter_measured="viability at 72 h, 300 nM" experimental_result=72.4%

---

Measured kaspáza 9, % kontroly accompanies every entry in the list below.
- Tested on: caspase 9
- PROTOCOL DETAILS: Caspase activity, luminescent kit, caspase 9;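 further: MCF-7 cells treated at 100 nM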
- Format: cell-based, human
- STATED CONDITIONS: 24 hodin; mean, normalised to viability
PARAMETER MEASURED: kaspáza 9, % kontroly

compound="CCNC(=O)NN=C(c1ccccc1)c1ccccn1 [E-Bp4eS, 2-benzoylpyridine 4-ethylsemicarbazone]" parameter_measured="kaspáza 9, % kontroly" experimental_result="110.34 % kontroly"
compound="CCNC(=O)NN=C(c1ccccc1)c1ccccn1 [Z-Bp4eS, 2-benzoylpyridine 4-ethylsemicarbazone]" parameter_measured="kaspáza 9, % kontroly" experimental_result="101.82 % kontroly"
compound="CCN=CNN=C(c1ccccc1)c1ccccn1 [Bp4eA]" parameter_measured="kaspáza 9, % kontroly" experimental_result="99.64 % kontroly"
compound="CCNC(=S)NN=C(c1ccccc1)c1ccccn1 [Bp4eT]" parameter_measured="kaspáza 9, % kontroly" experimental_result="124.96 % kontroly"

---

Measured viability at 72 h, 10 μM accompanies every entry in the list below.
- PROTOCOL DETAILS: MTT cytotoxicity assay, 3T3 cells
- Format: cell-based, mouse
- STATED CONDITIONS: mouse, 3T3 mouse embryo fibroblasts, 3T3; 10 000 b/j; koncentrace 10 μM; mean; read-out: MTT viability (0 = 100), průměr
PARAMETER MEASURED: viability at 72 h, 10 μM (%)

compound="CCNC(=O)NN=C(c1ccccc1)c1ccccn1 [E-Bp4eS, 2-benzoylpyridine 4-ethylsemicarbazone]" experimental_result=92.9
compound="CCN=CNN=C(c1ccccc1)c1ccccn1 [Bp4eA]" experimental_result=94.7

---

- PROTOCOL DETAILS: MTT cytotoxicity assay, 3T3 cells
- Assay type: cell-based, mouse
- STATED CONDITIONS: mouse, 3T3 mouse embryo fibroblasts, 3T3; 10 000 b/j; koncentrace 100 nM; individual experiments; read-out: MTT viability (0 = 100)
PARAMETER MEASURED: viability at 72 h, 100 nM (%)

sample_smiles=CCNC(=S)NN=C(c1ccccc1)c1ccccn1 experimental_result=75.4

---

Measured Calcein fluorescence accompanies every entry in the list below.
- Test system: labile iron pool of MCF-7 cells
- PROTOCOL DETAILS: Calcein-AM assay, access to the labile iron pool
- Assay type: cell-based, human
- Set-up: unit not given here
- STATED CONDITIONS: 10 μM, 90 sec, mean (průměr)
PARAMETER MEASURED: Calcein fluorescence

compound=CCN=CNN=C(c1ccccc1)c1ccccn1 experimental_result=8.535
compound="CCNC(=O)NN=C(c1ccccc1)c1ccccn1 [Z-Bp4eS, 2-benzoylpyridine 4-ethylsemicarbazone]" experimental_result=15.042
compound=CCNC(=S)NN=C(c1ccccc1)c1ccccn1 experimental_result=65.393
compound="CCNC(=O)NN=C(c1ccccc1)c1ccccn1 [E-Bp4eS, 2-benzoylpyridine 4-ethylsemicarbazone]" experimental_result=0.696

---

- Test system: HL-60 human promyelocytic leukemia cells
- PROTOCOL DETAILS: MTT cytotoxicity assay, HL-60 cells
- Type: cell-based
- STATED CONDITIONS: 3T3/HL-60
PARAMETER MEASURED: Therapeutic index, IC50 non-cancerous cells / IC50 neoplastic cells

compound="CCN=CNN=C(c1ccccc1)c1ccccn1 [Bp4eA]" qualifying_sign== experimental_result=19.7
compound="CCNC(=S)NN=C(c1ccccc1)c1ccccn1 [Bp4eT]" qualifying_sign== experimental_result=436.3
compound="CCNC(=O)NN=C(c1ccccc1)c1ccccn1 [E-Bp4eS, 2-benzoylpyridine 4-ethylsemicarbazone]" qualifying_sign=> experimental_result=6.6
compound="CCNC(=O)NN=C(c1ccccc1)c1ccccn1 [Z-Bp4eS, 2-benzoylpyridine 4-ethylsemicarbazone]" qualifying_sign=> experimental_result=21.6

---

- Tested on: A549 human lung adenocarcinoma cells
- PROTOCOL DETAILS: MTT cytotoxicity assay, A549 cells
- Format: cell-based
- STATED CONDITIONS: Homo sapiens, A549, A549; 2 000 b/j; MTT; single experiment (date); sheet Bp4eA
PARAMETER MEASURED: IC50 (µM)

compound="CCN=CNN=C(c1ccccc1)c1ccccn1 [Bp4eA]" parameter_measured=IC50 experimental_result=202

---

Measured viability at 72 h, 300 μM accompanies every entry in the list below.
- PROTOCOL DETAILS: MTT cytotoxicity assay, 3T3 cells
- Assay type: cell-based, mouse
- STATED CONDITIONS: mouse, 3T3 mouse embryo fibroblasts, 3T3; 10 000 b/j; koncentrace 300 μM; mean; read-out: MTT viability (0 = 100), průměr
PARAMETER MEASURED: viability at 72 h, 300 μM (%)

sample_smiles=CCN=CNN=C(c1ccccc1)c1ccccn1 parameter_measured="viability at 72 h, 300 μM" experimental_result=78.1
sample_smiles=CCNC(=O)NN=C(c1ccccc1)c1ccccn1 parameter_measured="viability at 72 h, 300 μM" experimental_result=81.5

The reported measurements were obtained from paper PMC4604124.
